Entry source: patent US20160289285A1

Target: T1, human serum albumin (human, UniProt P02768 25-609)
T1 construct: For SEC-MALS purified from CSL Behring 20% solution; also called HSA; SA (human)
T1 sequence (P02768 25-609 limits assumed): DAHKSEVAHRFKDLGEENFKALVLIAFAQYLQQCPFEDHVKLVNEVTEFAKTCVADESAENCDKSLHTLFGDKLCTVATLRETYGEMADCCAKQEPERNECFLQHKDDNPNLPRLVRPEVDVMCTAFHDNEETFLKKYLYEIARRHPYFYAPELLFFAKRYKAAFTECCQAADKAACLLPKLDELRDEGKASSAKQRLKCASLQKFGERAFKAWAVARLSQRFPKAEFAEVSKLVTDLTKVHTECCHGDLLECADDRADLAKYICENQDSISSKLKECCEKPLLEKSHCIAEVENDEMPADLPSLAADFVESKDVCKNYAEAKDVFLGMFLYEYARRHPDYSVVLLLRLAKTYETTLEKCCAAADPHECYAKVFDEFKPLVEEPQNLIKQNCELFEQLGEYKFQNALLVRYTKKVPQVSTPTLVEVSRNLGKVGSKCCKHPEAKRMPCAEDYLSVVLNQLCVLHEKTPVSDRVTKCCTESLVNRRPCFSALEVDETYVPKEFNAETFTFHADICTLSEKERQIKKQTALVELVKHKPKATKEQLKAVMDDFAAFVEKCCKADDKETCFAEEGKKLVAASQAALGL
Assay: SPR (ProteOn)
experimental_readout: Kd (nM)
Give bare numbers, in nM.

>>> experimental_result("Protein #51 (designed binder) MRGSHHHHHHGSDLGKKLLEAARAGQDDEVRILMANGADVNAKDYFSHTPLHLAARNGHLKIVEVLLKAGADVNAKDFAGKTPLHLAANDGHLEIVEVLLKHGADVNAQDIFGKTPADIAADAGHEDIAEVLQKAA")
14

Then this binder:
Param item = Protein #49 (designed binder) MRGSHHHHHHGSDLGKKLLEAARAGQDDEVRELLKAGADVNAKDYFSHTPLHLAARNGHLKIVEVLLKAGADVNAKDFAGKTPLHLAANDGHLEIVEVLLKAGADVNAQDIFGKTPADIAADAGHEDIAEVLQKAA ; retrieve measured Kd.
15
